# Tested on: HCV Replicon IB
# TEST_DETAILS: HCV replicon assay in Huh-7 cells, genotype 1b (Rluc luciferase readout)
# Assay type: cell-based, hepatitis C virus
# PARTICULARS: Hepatitis C virus, Huh-7, 72 h, HCV1B replicon, Huh-7 cells, 3 days; read-out: EC50_HCV1B_
ENDPOINT: EC50 (nM)
# output: bare number, implied unit nM

Illustrative cases are given below, each with its answer.
{"COMPOUND": "Nc1cc(-c2nnc(NCCCO)s2)nc2c(C(F)(F)F)cc(C3CC3)cc12 [Compound 375]", "UOM": "nM", "NUMERIC_READOUT": 9.56}
{"COMPOUND": "Cc1cc(-c2nnc(NC[C@@H]3CCCO3)o2)nc2c(C(C)(C)C)cc(C3CC3)cc12 [Compound 398]", "UOM": "nM", "NUMERIC_READOUT": 3.69}
{"COMPOUND": "Cc1cc(-c2nnc(NCC[C@H](C)O)o2)nc2c(C(C)(C)C)cc(OCC(F)(F)F)cc12 [Compound 456]", "UOM": "nM", "NUMERIC_READOUT": 3.3}

Item under review: Cc1cc(-c2nnc(Nc3cccnc3)o2)nc2c(C(C)(C)C)cc(OCC(C)(C)O)cc12 [Compound 537] . Reported EC50?
69.1

From: patent US20120053148A1
